All values here come from ChEMBL document CHEMBL4422652.

molecules and their reported IC50
assay: Inhibition of baker's yeast alpha-glucosidase using phenol-alphaD-glycopyranoside as substrate preincubated for 10 mins followed by substrate addition and measured after 30 mins; design: species or system Saccharomyces cerevisiae
Entry format: amount then unit.

Solved entries:
[
  {
    "mol": "CC1(C)CC[C@@]23CC[C@]4(C)[C@](OC2=O)([C@H](F)C[C@@H]2[C@@]5(C)C/C(=C\\c6cccc(Cl)c6)C(=O)C(C)(C)[C@@H]5CC[C@]24C)[C@@H]3C1",
    "IC50": "0.98 µM"
  },
  {
    "mol": "CC1(C)CC[C@@]23CC[C@]4(C)[C@](OC2=O)([C@H](F)C[C@@H]2[C@@]5(C)C/C(=C\\c6ccccn6)C(=O)C(C)(C)[C@@H]5CC[C@]24C)[C@@H]3C1",
    "IC50": "2.67 µM"
  },
  {
    "mol": "CC1(C)CC[C@@]23CC[C@]4(C)[C@](OC2=O)([C@H](F)C[C@@H]2[C@@]5(C)C/C(=C\\c6ccc(C(F)(F)F)nc6)C(=O)C(C)(C)[C@@H]5CC[C@]24C)[C@@H]3C1",
    "IC50": "1.86 µM"
  }
]

Inquiry: Assign IC50 to the following record: CC1(C)CC[C@@]23CC[C@]4(C)[C@](OC2=O)([C@H](F)C[C@@H]2[C@@]5(C)C/C(=C\c6ccc(Cl)cc6)C(=O)C(C)(C)[C@@H]5CC[C@]24C)[C@@H]3C1
Reply text: 0.69 µM

Inquiry: Assign IC50 to the following record: CC1(C)CC[C@@]23CC[C@]4(C)[C@](OC2=O)([C@H](F)C[C@@H]2[C@@]5(C)C/C(=C\c6ccc(-n7cncn7)cc6)C(=O)C(C)(C)[C@@H]5CC[C@]24C)[C@@H]3C1
Reply text: 3.18 µM
